Tested on: COLO 205 colon
Assay: NCI-60 one-dose screen, 48 h (100 = growth as untreated, 0 = no growth, -100 = all killed)
Conditions: 10 µM unless noted
The panel holds about 83,000 compounds, 20% with a hit somewhere; the sample as a whole holds those more often.
Quantity kind: growth (%)
Respond with the bare value in %.

Structure | Quantity kind | Number
COc1ccccc1P(c1ccccc1OC)c1ccccc1OC | growth | 87.1
COc1cc2ncn3c(=O)c4c5c(sc4nc3c2cc1OC)CCCCC5 | growth | 98
O=S(=O)(O)c1ccc(F)cc1 | growth | 114

# input Reported growth for COLO 205 colon, given CCCCOc1c(N)cccc1C(=O)OCCN(CC)CC ?
# output 109

# input Lab note: need growth with COLO 205 colon for entry Cc1cccc(NCS(=O)(=O)O)c1 , please look it up.
# output 103

# input Lab note: need growth with COLO 205 colon for entry c1ccc(-c2nc3sc(C(c4ccccc4)c4ccccc4)nn3c2-c2ccccc2)cc1 , please look it up.
# output 86.8

----------
Test system: SN12C renal
Assay: NCI-60 one-dose screen, 48 h
Details: 10 µM unless noted
Compounds without any hit were thinned out: in the full panel of roughly 83,000, 20% have a hit. Calls of active or inactive are those of the source. Rule for the calls: active = growth percent below 10; inactive = the rest.
Returns: one label drawn from Yes (active), No (inactive)

Compound | Target or system | Assigned label
CC(C)[C@@H]1NC(=O)[C@]2(C)CSC(=N2)c2ccnc(c2)CNC(=O)C[C@@H](/C=C/CCS)OC1=O | SN12C renal | No
CC(C(C(=O)N1CCCCC1)N1CCCCC1)N1CCCCC1 (centres undefined) | SN12C renal | No
COc1cc(Cn2cc3c(c2)-c2onc(CO)c2CC3)cc(OC)c1OC | SN12C renal | No

# input For COc1ccc2c(c1)O/C(=C/c1ccc(OCC(=O)Nc3ccc(S(N)(=O)=O)cc3)cc1)C2=O , which call appears in the assay record?
# output No

# input Could you check what this test reported for NS(=O)(=O)c1ccc(-n2nc(-c3ccc(Cl)cc3)ccc2=O)cc1 ?
# output No

----------
Tested on: OVCAR-4 ovarian
Assay: NCI-60 one-dose screen, 48 h
Conditions: 10 µM unless noted
This is part of a sample that, as a whole, favours compounds with a hit. Of some 83,000 tested, about 20% had one in any assay. Activity calls are given as the source filed them. The calls were made as follows: active = growth percent below 10; inactive = the rest.
Thanks in advance; please answer with one of these: active, inactive

For orientation, consider the following solved cases.
Compound | Assigned label
CCOc1ccc(-n2c(-c3cc(OC)c(OC)c(OC)c3)nnc2-c2ccc(OC)cc2N)cc1 | inactive
CC(=O)c1cc2c(N)c(C(=O)Nc3cccc(Cl)c3)sc2nc1C | inactive
CCC(C)Nc1ccc(N)cc1 (configuration not stated) | active
Clc1ccc2c(c1)nnn1c3ncccc3c(Br)c21 | inactive
C[C@]12CC[C@@H]3c4ccc(O)c(N)c4CC[C@H]3[C@@H]1CC[C@@H]2O | inactive
COc1cc(/C=C/C(=O)c2c(C)n([O-])c3cc(C)c(C)cc3[n+]2=O)cc(OC)c1OC | inactive
COc1ccc(C2=NN(C(=O)COc3ccc(Cl)cc3)C(O)(c3cc(F)c(Cl)cc3Cl)C2)cc1 (configuration not stated) | inactive
COc1cc2ncn3c(=O)c4c5c(sc4nc3c2cc1OC)CCCCC5 | inactive

# input // param item: Nc1ncc(-c2ccc3ncnc(Nc4cncc(Cl)c4)c3c2)cn1 ; yields the recorded call
# output inactive

# input Outcome logged for OC[C@@H](O)C(O[C@@H]1O[C@H](CO)[C@H](O)[C@H](O)[C@H]1O)[C@H](O)[C@@H](O)CO (some centres not stated) in this assay:
# output inactive

----------
Test system: K-562 leukemia
Assay: NCI-60 one-dose screen, 48 h (100 = growth as untreated, 0 = no growth, -100 = all killed)
Conditions: 10 µM unless noted
The panel holds about 83,000 compounds, 20% with a hit somewhere; the sample as a whole holds those more often.
Attribute: growth
API: value field is a number in %; no unit string.

Compound | Quantity kind | Number
Cn1c2ccccc2c2ssc(=S)c21 | growth | 82.9

# input Provide the documented growth with K-562 leukemia as the system for COc1ccc2c(c1)C(=O)/C(=C/c1cccc(OCC(=O)c3ccccc3)c1)O2
# output -98.3

# input Recall the recorded growth for O=C1C(SCCO)=C(SCCO)C(=O)N1c1ccc(-c2ccccc2)cc1 with K-562 leukemia and state it.
# output -0.074

# input Item: c1ccc(OCC[P+](c2ccccc2)(c2ccccc2)c2ccccc2)cc1 Test system: K-562 leukemia Read-out: growth Value: ?
# output 17.5

# input What value of growth on K-562 leukemia does C=CC(=O)Nc1cccc(Nc2nc(Nc3ccc(OCCOC(F)F)cc3)ncc2F)c1 have?
# output 19.9

# input Missing value: growth, K-562 leukemia, entry CC(C(C(=O)N1CCCCC1)N1CCCCC1)N1CCCCC1 (configuration not stated) . Fill in?
# output 94.7

# input Item O=C(COc1ccc(Cl)cc1Cl)N1N=C(c2ccc(Cl)cc2Cl)CC1(O)c1cc(F)c(Cl)cc1Cl (configuration not stated) with K-562 leukemia - growth?
# output 64.4

# input Could you share what growth was measured for O=C1C(Cl)=C(Nc2ccccc2)C(=O)C(Cl)=C1Nc1ccccc1 , tested on K-562 leukemia?
# output 103

# input Lab request: please report growth under test system K-562 leukemia for Cc1ccc(-c2cc(-c3nnc(SCC(=O)c4ccccc4)o3)c3ccccc3n2)cc1
# output 93.2

# input Fill in the recorded growth for this compound, with K-562 leukemia as test system: CCN(CC)CCNC(=O)c1c(C)[nH]c(/C=C2\C(=O)Nc3cc(NC(=O)NC(=O)c4ccc(OC)cc4F)ccc32)c1C
# output 10.9

# input Identify the measured growth of O=C(O)c1cccc2oc(-c3ccccc3O)nc12 for K-562 leukemia.
# output 60.9

# input Give the reported growth for O=C(Nc1ccc(-n2ccc3c(NC(=O)c4ccccc4)nccc32)cc1)c1ccc(Cl)c(C(F)(F)F)c1 (system: K-562 leukemia).
# output -31.6

# input growth of CN(C)CC/C=C1\c2ccccc2Sc2ccc(Cl)cc21 on K-562 leukemia?
# output 16.4

# input Form entry - test system: K-562 leukemia; read-out: growth; compound: NC(CCCC(N)C(=O)c1ccccc1)C(=O)O (configuration not stated)
# output 98.9

# input Recorded growth for CCCCC(=O)Nc1nc2ccc(SCCC)cc2s1 with K-562 leukemia, please?
# output 16.5

----------
Tested on: MCF7 breast
Experiment: NCI-60 one-dose screen, 48 h
Conditions: 10 µM unless noted
About 83,000 compounds went through this panel and 20% of them were active in at least one assay; those are over-represented in the sample as a whole. Calls of active or inactive are those of the source. Rule for the calls: active = growth percent below 10; inactive = the rest.
Answer with one of the outcomes given here: active, inactive

# input State the result this test recorded for O=C(Cn1c2ccccc2c2ccncc21)N/N=C/c1cc(O)c(O)c(O)c1 .
# output inactive

# input Test call, this compound: CC1(C)Cc2c(Br)c(Br)c(Br)c(OCC(O)CN3CCN(c4ccccn4)CC3)c2O1 (stereo not given)
# output inactive

# input Hello, I am checking results. What call was entered for O=C(Nc1ccc(F)cc1)Nc1ccc(Cl)c([N+](=O)[O-])c1 ?
# output active

# input Check the results log: what was the call for COc1cc(/C=C/C(=O)c2c(C)n([O-])c3cc(C)c(C)cc3[n+]2=O)cc(OC)c1OC ?
# output inactive

# input Per the records of this test, what outcome belongs to CCOC(=O)C1=C(N)Oc2cc(OC)ccc2C1c1ccc(F)c(F)c1 (stereo not given) ?
# output inactive

----------
# key: entry, value: growth
Tested on: HT29 colon
Assay: NCI-60 one-dose screen, 48 h (100 = growth as untreated, 0 = no growth, -100 = all killed)
Conditions: 10 µM unless noted
Compounds without any hit were thinned out: in the full panel of roughly 83,000, 20% have a hit.
Reply numerically in %, unit not repeated.

Take a look at these entries with their results.
Compound | Number
Nc1n[nH]c2cccc(C#Cc3cccc(NC(=O)c4cccc(C(F)(F)F)c4)c3)c12 | 13.3
COc1cc(Nc2ncccc2C(=O)Nc2nc3ccc(F)cc3s2)cc(OC)c1OC | 79.1
CO[C@H]1/C=C/C=C/C=C/C[C@H](OC(=O)[C@@H](C)NC(=O)C2CCCCC2)[C@H](C)[C@@H](O)/C(C)=C\CCC2=CC(=O)C=C(NC(=O)C1)C2=O | -28.8
CC(C)CNCC(O)COc1ccc(C(C)(C)c2ccc(OCC(O)CNCC(C)C)cc2)cc1 (stereo not given) | -8.67
COc1ccc(-c2c(NC(=O)Nc3ccc(Cl)c(C(F)(F)F)c3)cnn2-c2ccc(S(N)(=O)=O)cc2)cc1 | 24.8

Shifting focus to the compound that follows.
# input Which growth is reported with HT29 colon for this entry: O=C(C[n+]1cccc(Br)c1)c1ccc2c(c1)CCCC2 ?
# output 80.7
